These measurements were taken from ChEMBL document CHEMBL5053523.

As shown below, each of these compounds has a reported IC50 value.
Target: Programmed cell death protein 1/Programmed cell death 1 ligand 1 (Homo sapiens, UniProt Q15116+Q9NZQ7)
Sequence (Q15116 whole entry): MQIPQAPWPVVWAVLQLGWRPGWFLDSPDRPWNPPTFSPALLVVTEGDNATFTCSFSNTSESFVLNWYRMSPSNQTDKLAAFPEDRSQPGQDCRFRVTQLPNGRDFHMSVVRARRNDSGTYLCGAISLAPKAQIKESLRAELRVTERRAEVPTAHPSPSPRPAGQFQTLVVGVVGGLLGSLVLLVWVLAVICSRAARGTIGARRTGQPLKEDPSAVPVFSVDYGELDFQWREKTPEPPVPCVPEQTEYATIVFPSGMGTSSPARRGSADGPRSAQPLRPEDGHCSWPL
Sequence (Q9NZQ7 whole entry): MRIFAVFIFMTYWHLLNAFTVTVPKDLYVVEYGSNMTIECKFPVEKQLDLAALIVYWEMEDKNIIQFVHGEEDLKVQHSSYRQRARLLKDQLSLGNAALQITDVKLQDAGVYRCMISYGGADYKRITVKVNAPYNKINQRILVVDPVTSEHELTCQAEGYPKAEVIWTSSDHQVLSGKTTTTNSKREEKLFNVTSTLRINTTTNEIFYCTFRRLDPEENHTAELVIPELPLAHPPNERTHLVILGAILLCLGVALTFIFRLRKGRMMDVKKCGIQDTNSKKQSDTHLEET
Assay: Inhibition of PD-1/PDL1 protein-protein interaction (unknown origin)
Format: protein-complex assay

Solved cases below.
COMPOUND	IC50
N#Cc1cncc(COc2cc(OC3CCc4c(-c5ccccc5)cccc43)c(Cl)cc2CN[C@@H](CO)C(=O)O)c1 (stereo partly drawn)	< 100 nM
Cc1c(/C=C/c2c(Cl)cc(CNC(C)(CO)C(=O)O)cc2C(F)(F)F)cccc1-c1ccc2c(c1)OCCO2 (stereo not drawn)	18 nM

Problem: Consider the compound "Cc1c(NC(=O)c2cccc(CNCCO)n2)cccc1-c1ccccc1" and give its measured IC50.
Result: ≤ 10 nM

====

Biological target: Programmed cell death protein 1/Programmed cell death 1 ligand 1 (Homo sapiens, UniProt Q15116+Q9NZQ7)
Experiment: Inhibition of PD-1/PDL1 protein-protein interaction (unknown origin) by HTRF assay
Type: protein-complex assay
PROPERTY_MEASURED: pIC50
Note: pIC50 values are expressed as the negative base-10 logarithm of concentration in M.

Solved cases below.
COMPOUND	pIC50
CC(=O)NCCNCc1ccc2onc(Nc3cccc(-c4ccccc4)c3Cl)c2c1	6.71
OC1CCN(Cc2ccc3onc(Nc4cccc(-c5ccc6c(c5)OCCO6)c4Cl)c3c2)C1 (racemic)	5.89
O=C(O)C1CCCCN1Cc1ccc2onc(Nc3cccc(-c4ccccc4)c3Cl)c2c1 (racemic)	7.15
OCCNCc1ccc2c(Nc3cccc(-c4ccccc4)c3Cl)noc2c1	5.19
OC1CCN(Cc2ccc3c(Nc4cccc(-c5ccccc5)c4Cl)noc3c2)C1 (racemic)	5.83
O=C(O)CNCc1ccc2c(Nc3cccc(-c4ccc5c(c4)OCCO5)c3Cl)noc2c1	6.42

Problem: Consider the compound "O=C(O)[C@H](CO)NCc1ccc2onc(Nc3cccc(-c4ccc5c(c4)OCCO5)c3Cl)c2c1" and give its measured pIC50.
Result: 7.29

Problem: Consider the compound "O=C(O)CNCc1ccc2onc(Nc3cccc(-c4ccc5c(c4)OCCO5)c3Cl)c2c1" and give its measured pIC50.
Result: 7.04

Problem: Consider the compound "OCCNCc1ccc2onc(Nc3cccc(-c4ccccc4)c3Cl)c2c1" and give its measured pIC50.
Result: 6.10

Problem: Consider the compound "COC(=O)[C@H](CO)NCc1ccc2onc(Nc3cccc(-c4ccccc4)c3Cl)c2c1" and give its measured pIC50.
Result: 5.79

====

Target: Programmed cell death protein 1/Programmed cell death 1 ligand 1 (Homo sapiens, UniProt Q15116+Q9NZQ7)
Assay: Inhibition of PD-1/PDL1 protein-protein interaction (unknown origin) by HTRF assay
Assay type: protein-complex assay
pIC50: −log10 of the molar value.
Criterion: pIC50 meeting or surpassing 6. Met: Condition met. Not met: Condition not met.

MOLECULE	ANSWER_LABEL
OC1CCN(Cc2ccc3onc(Nc4cccc(-c5ccccc5)c4Cl)c3c2)C1 (racemic)	Condition met

Lab note: next molecule to report on.
Problem: Hi, just wondering whether "OCCNCc1ccc2onc(Nc3cccc(-c4ccc5c(c4)OCCO5)c3Cl)c2c1" shows pIC50 of 6 or higher.
Result: Condition not met

====

Target: Programmed cell death protein 1/Programmed cell death 1 ligand 1 (Homo sapiens, UniProt Q15116+Q9NZQ7)
Assay: Inhibition of PD-1/PDL1 protein-protein interaction (unknown origin) by HTRF assay
Assay type: protein-complex assay
PROPERTY_MEASURED: IC50 (nM)
Quick note: give the figure in nM, leave out the unit.

Problem: Consider the compound "O=C(O)C1CN(Cc2ccc3onc(Nc4cccc(-c5ccccc5)c4Cl)c3c2)C1" and give its measured IC50.
Result: 364

Problem: Consider the compound O=C(O)C1CCN(Cc2ccc3onc(Nc4cccc(-c5ccccc5)c4Cl)c3c2)C1 (racemic) and give its measured IC50.
Result: 452
